// reported melting point for each item listed

{"molecule": "CCOc1ccc(Oc2ccccc2N)cc1", "assay-result": "158 to 160 °C"}
{"molecule": "Clc1nc(CN2CCOCC2)nc2scc(-c3cccs3)c12", "assay-result": "105 to 107 °C"}
{"molecule": "CC1(c2ccc(F)cc2)NC(=O)NC1=O (centres undefined)", "assay-result": "204 to 206 °C"}
{"molecule": "Cc1cccc2[nH]cc(CCN)c12", "assay-result": "108 to 110 °C"}
{"molecule": "CN1C(=O)/C(=N\\NC(=O)c2cccnc2)c2ccccc21", "assay-result": "195 to 197 °C"}

Ask: For the molecule shown here, COC(C)c1nc(C)c(C(=O)O)s1 (centres undefined) , give the reported melting point.
Result: 126 to 128 °C

Ask: For the molecule shown here, CC(O)c1nc2cc(Cl)ccc2s1 (centres undefined) , give the reported melting point.
Result: 109 to 111 °C

Ask: For the molecule shown here, O=C(O)CCNC(=O)c1ccncc1 , give the reported melting point.
Result: 239 to 241 °C

Ask: For the molecule shown here, NS(=O)(=O)c1cnc(Cl)s1 , give the reported melting point.
Result: 128 to 130 °C

Ask: For the molecule shown here, O=C(O)c1cccnc1SCc1ccc(F)cc1 , give the reported melting point.
Result: 191 to 193 °C

Ask: For the molecule shown here, COC(=O)c1cc(S(=O)(=O)Cl)ccc1O , give the reported melting point.
Result: 81 to 83 °C

Ask: For the molecule shown here, [N-]=[N+]=NC1(c2ccc(F)cc2)CCOCC1 , give the reported melting point.
Result: 63 to 65 °C

Ask: For the molecule shown here, O=C(O)Cc1occc1C(=O)O , give the reported melting point.
Result: 204 to 206 °C

Ask: For the molecule shown here, N#CC1(N)CCCCC1 , give the reported melting point.
Result: 25 to 27 °C

---

// reported melting point for each item listed

{"molecule": "COC(=O)c1ccc(S(=O)(=O)Cl)c(Cl)c1", "assay-result": "64 to 66 °C"}

Ask: For the molecule shown here, O=C(O)c1ccc([N+](=O)[O-])[nH]1 , give the reported melting point.
Result: 162 to 164 °C

Ask: For the molecule shown here, Cc1nc(-c2cc3c(s2)CCNC3)cs1 , give the reported melting point.
Result: 111 to 113 °C

Ask: For the molecule shown here, Oc1ccc2nc[nH]c2c1 , give the reported melting point.
Result: 215 to 217 °C

---

// reported melting point for each item listed

Worked set:
{"molecule": "O=C(O)CCc1ncc(-c2ccccc2Cl)o1", "melting point": "184 to 186 °C"}
{"molecule": "CS(=O)(=O)c1cccc(OCC(=O)O)c1", "melting point": "110 to 112 °C"}
{"molecule": "FC(F)(F)Cn1nnnc1S", "melting point": "122 to 124 °C"}
{"molecule": "O=C1Cc2cc(Br)c(Cl)cc2N1", "melting point": "219 to 221 °C"}
{"molecule": "Cc1ccccc1C(C)CC(=O)O (stereo not drawn)", "melting point": "47 to 49 °C"}
{"molecule": "CC(C)C(=O)Nc1ccc(N)cc1", "melting point": "74 to 76 °C"}
{"molecule": "CC(=O)c1cc(C(=O)O)n(C)c1", "melting point": "177 to 181 °C"}

Then there is this molecule:
Ask: For the molecule shown here, CCCc1nonc1N , give the reported melting point.
Result: 29 to 31 °C

---

// reported melting point for each item listed

Worked set:
{"molecule": "Cc1ccc(C#N)c(N2CCCC2)c1", "melting point": "68 to 70 °C"}
{"molecule": "Cc1[nH]nc(C(N)=O)c1N", "melting point": "219 to 221 °C"}
{"molecule": "COCCOc1cn(-c2ccccc2)nc1C(=O)O", "melting point": "103 to 105 °C"}

Ask: For the molecule shown here, O=C1CCCN1Cc1nnc(S)o1 , give the reported melting point.
Result: 172 to 174 °C

Ask: For the molecule shown here, CC1Oc2ccccc2NC1=O (configuration not stated) , give the reported melting point.
Result: 142 to 144 °C

Ask: For the molecule shown here, Fc1cc2cccnc2cc1F , give the reported melting point.
Result: 109 to 111 °C

Ask: For the molecule shown here, Nc1cc(N2C(=O)CCC2=O)ccc1F , give the reported melting point.
Result: 215 to 217 °C

Ask: For the molecule shown here, CN1CCN(c2ccnc(C#N)c2)CC1 , give the reported melting point.
Result: 114 to 116 °C

Ask: For the molecule shown here, Oc1ccc(-c2noc(-c3cccc(Br)c3)n2)cc1 , give the reported melting point.
Result: 222 to 224 °C

Ask: For the molecule shown here, Cc1ccc(-c2noc(Cl)n2)cc1 , give the reported melting point.
Result: 40 to 42 °C

---

measured-quantity: melting point

Worked set:
{"compound": "CC(C)C(C#N)NC(=O)c1ccccc1 (stereo not drawn)", "melting point": "106 to 108 °C"}
{"compound": "CN1CCN(C(=O)Cc2cccc(N)c2)CC1", "melting point": "138 to 140 °C"}
{"compound": "CCS(=O)(=O)Nc1nc2ccc(N)cc2s1", "melting point": "217 to 219 °C"}
{"compound": "NC(=O)c1ccc(Oc2ccc(C(=O)O)cc2)cc1", "melting point": "289 to 291 °C"}
{"compound": "COc1cc(S(N)(=O)=O)ccc1[N+](=O)[O-]", "melting point": "149 to 151 °C"}

Ask: For the compound shown here, O=C(O)c1ccn(-c2ccc(Cl)cc2)n1 , give the reported melting point.
Result: 169 to 171 °C

Ask: For the compound shown here, CC(C)(C)OC(=O)N1CCCC(COS(C)(=O)=O)C1 (stereo not drawn) , give the reported melting point.
Result: 76 to 78 °C

Ask: For the compound shown here, O=C(O)CCCCCc1ccc(I)cc1 , give the reported melting point.
Result: 65 to 67 °C

Ask: For the compound shown here, Cc1cc(C)c2oc(N)nc2c1 , give the reported melting point.
Result: 197 to 199 °C

Ask: For the compound shown here, CC(Cl)C(=O)NCC(=O)c1ccccc1 (stereo not drawn) , give the reported melting point.
Result: 86 to 88 °C

Ask: For the compound shown here, Cc1nc(Cl)sc1C(=O)O , give the reported melting point.
Result: 149 to 151 °C

Ask: For the compound shown here, CCc1c(C(C)(C)C)noc1N , give the reported melting point.
Result: 75 to 77 °C

Ask: For the compound shown here, O=C(O)C=Cc1ccc(SC(F)(F)F)cc1 , give the reported melting point.
Result: 212 to 214 °C

---

measured-quantity: melting point

Worked set:
{"molecule": "NC(CCN1CCN(Cc2ccccc2)CC1)=NO", "melting point": "111 to 113 °C"}
{"molecule": "CC(NC(=O)C(Br)C(C)C)c1ccccc1 (configuration not stated)", "melting point": "73 to 75 °C"}
{"molecule": "CC(=O)c1c(O)cc(C)oc1=O", "melting point": "109 to 111 °C"}
{"molecule": "O=C(O)c1cc(Br)ncc1[N+](=O)[O-]", "melting point": "169 to 171 °C"}
{"molecule": "OCc1cnn(-c2ccccc2)c1", "melting point": "63 to 67 °C"}
{"molecule": "ON=Cc1nc2cc(Cl)ccc2o1", "melting point": "206 to 208 °C"}

Then there is this molecule:
Ask: For the molecule shown here, NNc1ccc(S(=O)(=O)N2CCC(Cc3ccccc3)CC2)cn1 , give the reported melting point.
Result: 185 to 187 °C

---

// reported melting point for each item listed

{"molecule": "CC1CCN(C(=O)c2cccnc2Cl)CC1", "melting point": "96 to 98 °C"}
{"molecule": "CC(N)(C(N)=O)c1cccc(C(F)(F)F)c1 (centres undefined)", "melting point": "84 to 86 °C"}
{"molecule": "Clc1cncc(N2CCCC2)n1", "melting point": "53 to 55 °C"}

Ask: For the molecule shown here, CSc1ccc(N)cc1F , give the reported melting point.
Result: 49 to 51 °C

Ask: For the molecule shown here, Clc1cc2ccccc2c(Cl)n1 , give the reported melting point.
Result: 100 to 102 °C

Ask: For the molecule shown here, O=C(O)c1ccc2c(c1)C(=O)N(Cc1ccco1)C2=O , give the reported melting point.
Result: 172 to 176 °C

Ask: For the molecule shown here, CS(=O)(=O)Cc1noc(C(Cl)(Cl)Cl)n1 , give the reported melting point.
Result: 110 to 112 °C

Ask: For the molecule shown here, O=C(c1cccnc1)c1csc2ccccc12 , give the reported melting point.
Result: 109 to 111 °C

Ask: For the molecule shown here, NC(=O)c1cc(-c2ccccc2)on1 , give the reported melting point.
Result: 202 to 204 °C

Ask: For the molecule shown here, NS(=O)(=O)c1cc(F)cc([N+](=O)[O-])c1 , give the reported melting point.
Result: 184 to 186 °C
